test: Toxicity liver stage against HepG2, at 10uM; assay type: cell-based; design: test concentration 10 uM, cell line HepG2-A16-CD81EGFP; settings: human, HepG2-A16-CD81EGFP cells; read-out: INHIBITION
Measured cytotoxicity at 10 µM, listed per entry for reference.
quantity_kind: cytotoxicity at 10 µM (%)

1) CN(Cc1ccccc1)C1COC2(CCN(Cc3nccs3)CC2)C1 (stereo unspecified)    -19.5
2) O=C(c1cccnc1)N1CCOC(c2ccc(-c3cncnc3)cn2)C1 (stereo unspecified)    -16
3) CNC(=O)c1cccc(C2CNCCN2C(=O)C2CCNCC2)c1 (stereo unspecified)    -2.39
4) Cc1cc(C)nc(C2CCN(C(=O)c3c(C)noc3C)C2)n1 (stereo unspecified)    -4.34
5) Cc1ccc2c(n1)N(CCn1cccn1)CCN(CC1CC1)C2    8.83
6) Cc1ccc(SC2CCCC2)c(C(=O)NCc2n[nH]c(=O)[nH]2)c1    -38.4
7) c1ccc2sc(CN3CCCC3c3noc(C4CC4)n3)nc2c1 (stereo unspecified)    -9.88
8) Cc1cccc(C(=O)NCCCN2CCc3ccccc3C2)c1C    -4.71
9) CC(=O)c1nn(-c2cccc(Cl)c2)c(C)c1C(C)=O    -3.55
10) Cc1nc(C)n(CC2CCCN(Cc3noc(C)n3)C2)n1 (stereo unspecified)    -1.87
11) Cc1nc(NCc2ccc(C)o2)cc(C2CCNCC2)n1    4.52
12) Cn1ccc(CN2CCC(NC(=O)Cc3ccccc3)CC2)cc1=O    -9.75
13) CC(CNC(=O)c1cc(Cn2cnc3ccccc32)[nH]n1)N1CCCC1 (stereo unspecified)    -4.62
14) O=C(CN1CCCC1Cn1cncn1)Nc1cccnc1 (stereo unspecified)    -14.6
15) O=C(OCC1CCCN1)c1cccc(NC(=O)c2ccco2)c1 (stereo unspecified)    -6.66
16) Cn1ccc(C(=O)NC2CCC23CCN(Cc2cccnc2)CC3)c1 (stereo unspecified)    -12.1
17) Nc1nc2c(c(NCC(c3cccnc3)N3CCOCC3)n1)CCNC2 (stereo unspecified)    9.03
18) Cc1ccnc(NC(=O)c2c(C)oc(C)c2C)c1    17.2
19) COCCOc1ccc(NC(=O)C2CC(=O)N(C3CC3)C2)cn1 (stereo unspecified)    -6.93
20) CC(C)Cc1nc(CS(C)(=O)=O)n(-c2ccccn2)n1    1.66
21) O=C(c1cccnc1N1CCOCC1)N1CCCC(n2ccnc2)C1 (stereo unspecified)    -3.56
22) Cc1nc(N)cc(C2(C)CCCNC2)n1 (stereo unspecified)    1.36
23) Cc1ncoc1C(=O)N1CCn2c(COCC3CC3)cnc2C1C (stereo unspecified)    -1.67
24) O=C(c1ccc(C2CCCN2C(=O)c2cscn2)s1)N1CCSCC1 (stereo unspecified)    -4.31
25) OC1CCN(c2ccnc3c(F)cc(Br)cc23)CC1    11.6
26) COCCNC(=O)c1cc2c(nc1O)CC(c1cccs1)CC2=O (stereo unspecified)    11.9
27) CCN(CC)Cc1ccc(C(=O)NC2CCc3ccccc32)o1 (stereo unspecified)    -3.97
28) CN(C)c1nc2cn(C3CCSCC3)c(=O)c-2c[nH]1    8.56
29) CC(=O)N1CCCC1(C)c1nc(C)no1 (stereo unspecified)    2.71
30) CN1CCN(Cc2cnc3n2CCN(C(=O)c2ccccn2)C3)CC1    -88.7
31) Fc1cccc(NCc2ncc[nH]2)c1    -9.16
